We begin with a simple list: items and their reported Non Amp - AMP (POC) 10 uM.
Tested on: ovarian cancer cells with (OVCAR8, OVCAR4) or without (OVSAHO, CAOV3) MYC-HSF1 amplification
Experiment: Epigenetic inhibitor drug screen, cell viability (Cell Titer Blue)
Assay type: cell-based
Details: 10 uM, 48 hrs; average relative cell viability (vs 1% DMSO) of non-amplified cells (OVSAHO, CAOV3) minus that of MYC-HSF1 amplified cells (OVCAR8, OVCAR4); positive = greater response in amplified cells
Just the number please, in POC, no unit attached.

{"columns": ["molecule", "observed_measurement"],
 "data": [
  ["COc1cc2c(Nc3ccc(NC(=O)c4ccccc4)cc3)ncnc2cc1OCCCN1CCOCC1", 0.5089]
]}

The measured Non Amp - AMP (POC) 10 uM associated with Nc1ccccc1NC(=O)c1cnccn1 reads 25.74

The measured Non Amp - AMP (POC) 10 uM associated with Cl.Clc1ccc(-c2csc(NN=C3CCCC3)n2)cc1 [CPTH2 (hydrochloride)] reads 6.251

The measured Non Amp - AMP (POC) 10 uM associated with Cc1cc(Nc2cc(N3CCN(C)CC3)nc(/C=C/c3ccccc3)n2)n[nH]1 reads −22.8

The measured Non Amp - AMP (POC) 10 uM associated with CCn1c(-c2nonc2N)nc2c(C#CC(C)(C)O)ncc(OC[C@H]3CCCNC3)c21 reads −7.029

The measured Non Amp - AMP (POC) 10 uM associated with CC1(C)C(=O)N=C2C1=C(O)C(=O)c1ccccc12 reads 22.87

The measured Non Amp - AMP (POC) 10 uM associated with CCC1C/C(=C\c2cccnc2)C(=O)/C(=C/c2cccnc2)C1 (stereo not drawn) reads −5.355

The measured Non Amp - AMP (POC) 10 uM associated with O=C(Nc1nc2cccc(-c3ccc(CN4CCS(=O)(=O)CC4)cc3)n2n1)C1CC1 reads 15.53

The measured Non Amp - AMP (POC) 10 uM associated with CCN(CCO)CCCOc1ccc2c(Nc3cc(CC(=O)Nc4cccc(F)c4)[nH]n3)ncnc2c1 reads −16.49

---

Tested on: ovarian cancer cells with (OVCAR8, OVCAR4) or without (OVSAHO, CAOV3) MYC-HSF1 amplification
Experiment: Epigenetic inhibitor drug screen, cell viability (Cell Titer Blue)
Assay type: cell-based
Details: 10 uM, 48 hrs; average relative cell viability (vs 1% DMSO) of non-amplified cells (OVSAHO, CAOV3) minus that of MYC-HSF1 amplified cells (OVCAR8, OVCAR4); positive = greater response in amplified cells
We begin with a simple list: items and their reported Non Amp - AMP (POC) 10 uM.
Write the numeric value and follow it with the unit.

{"columns": ["compound", "Non Amp - AMP (POC) 10 uM"],
 "data": [
  ["CC(C)OC(=O)CCC/C=C\\C[C@@H]1[C@@H](CC[C@@H](O)CCc2ccccc2)[C@H](O)C[C@@H]1O", "−8.842 POC"]
]}

The measured Non Amp - AMP (POC) 10 uM associated with O=C(O)CNC(=O)c1nc(Cl)c2ccccc2c1O reads −1.816 POC

The measured Non Amp - AMP (POC) 10 uM associated with Cc1ccc2nc(NCCN)c3ncc(C)n3c2c1 [BMS-345541 (free base)] reads 19.27 POC

The measured Non Amp - AMP (POC) 10 uM associated with Oc1ccc(C=Cc2cc(O)cc(O)c2)cc1 reads 0.9482 POC

The measured Non Amp - AMP (POC) 10 uM associated with NC(=O)c1ccccc1 [Benzamide] reads −5.576 POC

The measured Non Amp - AMP (POC) 10 uM associated with O=C(NCc1ccncc1)C12CC3CC(C1)CC(c1ccc(Cl)cc1)(C3)C2 reads 4.657 POC

The measured Non Amp - AMP (POC) 10 uM associated with Cc1cnc(Nc2ccc(N3CCN(C)CC3)cc2)nc1Nc1cccc(S(=O)(=O)NC(C)(C)C)c1 reads 15.1 POC
